# Relative Fluorescence of Transfection of HuVEC Cells per entry
# System: HuVec Cells
# Assay name: GFP plasmid transfection with DOTMA/DOPE plus plant virus movement protein derived peptides (Example 2)
# Type: cell-based
# Measurement setup: Transfection Agent 1.5 μl, 42 hours
# Method: Cells were plated to so that on the day of transfection the cells were 70% confluent in 96 well tissue culture plates. […] All solutions were at room temperature. […] Plates were read on a fluorescent plate reader. […] Other modes of analysis, for example quantification with B-galactosidase or luciferase reports plasmids can also be used.
Measured metric: Relative Fluorescence of Transfection of HuVEC Cells (Rf)

[[record]]
substance = "545 (KSVPNRTRTYIKLKRLRFKGAPYKAWRRRRRRRRRRRR) [compound 545]"
measurement_target = "HuVec Cells"
unit_of_measure = "Rf"
reported_result = 36649

[[record]]
substance = "546 (RTGVKRSYGAARGDDRRRPNVVRRRRRRRRRRRR) [compound 546]"
measurement_target = "HuVec Cells"
unit_of_measure = "Rf"
reported_result = 32762

[[record]]
substance = "541 (RRRRRRRRRRRRGKWERKPIRCAS) [compound 541]"
measurement_target = "HuVec Cells"
unit_of_measure = "Rf"
reported_result = 46446

[[record]]
substance = "543 (RRRRRRRRRRRRVDFSHVDYGKWERKPIRCASMSRLGLRG) [compound 543]"
measurement_target = "HuVec Cells"
unit_of_measure = "Rf"
reported_result = 36742

[[record]]
substance = "542 (KKKKKKKKKKKKKKKKGKWERKPIRCAS) [compound 542]"
measurement_target = "HuVec Cells"
unit_of_measure = "Rf"
reported_result = 33896

[[record]]
substance = "109 (RRRRRRRRRRRR) [compound 109]"
measurement_target = "HuVec Cells"
unit_of_measure = "Rf"
reported_result = 25735

[[record]]
substance = "544 (GVKRSYGAARGDDRRRPNVVAPYKAWRRRRRRRRRRRR) [compound 544]"
measurement_target = "HuVec Cells"
unit_of_measure = "Rf"
reported_result = 28622

[[record]]
substance = "547 (SYVKTVPNRTRTYIKGGGGGRRRRRRRRRRRR) [compound 547]"
measurement_target = "HuVec Cells"
unit_of_measure = "Rf"
reported_result = 26172

[[record]]
substance = "540 (RRRRRRRRRRRRVDYGKWERKPIRCASMSR) [compound 540]"
measurement_target = "HuVec Cells"
unit_of_measure = "Rf"
reported_result = 34062

